Data provenance is paper PMC4130196.

The entries below come with measured viability at 24 h, 200 μg/mL values attached.
Assay Method Text: in vitro
Type: cell-based
Condition Summary: human
Readout Name: viability at 24 h, 200 μg/mL (%)

CC(C)[C@H](N)C(=O)N[C@@H](CCCCN)C(=O)O : 118
NC(=O)C[C@H](NC(=O)[C@H](Cc1ccc(O)cc1)NC(=O)[C@@H](N)Cc1ccccc1)C(=O)O : 110
C[C@H](NC(=O)[C@@H](N)[C@@H](C)O)C(=O)N[C@@H](Cc1ccc(O)cc1)C(=O)O : 105
NCCCC[C@H](N)C(=O)N[C@@H](Cc1ccc(O)cc1)C(=O)O : 118
